target: SARS-CoV-2 spike protein receptor binding domain (RBD2) (SARS-CoV-2, UniProt P0DTC2 319-537); experiment: SPR sandwich binning, ligand CR3022
property: normalized analyte binding to RBD2 held by the immobilized ligand
Please reply with the number alone, leaving off any unit.

Sample answers from the record:
{"binder": "H05 IgG1 (antibody, V domains shown, also called H5; HO5) VH: QVQLVQSGAEVKKPGSSVKVSCKASGGTFSSYAISWVRQAPGQGLEWMGGIIPIFGTANYAQKFQGRVTITADESTSTAYMELSSLRSEDTAVYYCARSIFGVVIISHADGYYYGMDVWGQGTTVTVSS VL: SYVLTQPPSVSVAPGQTARITCGANNIGRISVHWYQQKPGQAPVLVVYDDSDRPSGIPERFSGSNFGNTATLTISRVEAGDEADYYCQVWDSYSDHVIFGGGTKLTVL", "measured number": -0.15}
{"binder": "E08 IgG1 (antibody, V domains shown) VH: QVQLVQSGAEVKKPGSSVKVSCKASGGTFSSYAISWVRQAPGQGLEWMGGIIPIFGTANYAQKFQGRVTITADESTSTAYMELSSLRSEDTAVYYCARASGRWLQFWHYYGMDVWGQGTTVTVSS VL: SYVLTQPPSVSVAPGKTARITCGGNNIGWKSVHWYQQKPGQAPVLVVYDDSDRPSGIPERFSGSNSGNTATLTISRVEAGDEADYYCQVWDSSSDLVVFGGGTKLTVL", "measured number": -0.08}

Now for the binder whose normalized analyte binding to RBD2 held by the immobilized ligand we want.
Exercise: Item B04 IgG1 (antibody, V domains shown) VH: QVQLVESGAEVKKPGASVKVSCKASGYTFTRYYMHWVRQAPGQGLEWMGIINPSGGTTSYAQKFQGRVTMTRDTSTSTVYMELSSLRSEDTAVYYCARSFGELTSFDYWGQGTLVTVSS VL: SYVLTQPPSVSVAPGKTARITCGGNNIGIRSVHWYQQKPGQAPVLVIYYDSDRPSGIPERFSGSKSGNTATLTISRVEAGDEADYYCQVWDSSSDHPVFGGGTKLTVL has what recorded normalized analyte binding to RBD2 held by the immobilized ligand?
Key: 2.22

Reference source for all entries: patent US12018066
